All figures here come from PubChem BioAssay (NCI).

tested on: HOP-62 NSCLC; assay: NCI-60 one-dose screen, 48 h; details: 10 µM
Compounds without any hit were thinned out: in the full panel of roughly 83,000, 20% have a hit. Calls of active or inactive are those of the source. Rule for the calls: active = growth percent below 10; inactive = the rest.
Thanks in advance; please answer with one of these: 1 = active, -1 = inactive

Please review the following examples before continuing.
| Line notation | Target or test system | Cat |
| --- | --- | --- |
| CCOC(=O)N/N=C/c1ccc(OC)c(OC)c1 | HOP-62 NSCLC | -1 |
| COc1ccc(-c2nnc(SCC(=O)Nc3ccc(C(=O)/C=C/c4ccccc4)cc3)n2-c2ccccc2)cc1OC | HOP-62 NSCLC | -1 |
| COc1ccc(-c2cc(-c3ccc(OC)c(OC)c3)nc(SCCCC(=O)NO)n2)cc1 | HOP-62 NSCLC | 1 |

Prompt line: // param item: Clc1nc2ccc(Br)cc2cc1-c1nc2ccccc2[nH]1 ; yields the recorded call
Response line: -1

Prompt line: // param item: CCc1ccc(-c2ccc(-n3nc(C)c4c(N)nc(Cc5ccccc5)nc43)cc2)cc1 ; yields the recorded call
Response line: -1
